The origin of these recorded values is patent US20150072933A1.

- target_or_system: T1, zebrafish Tac3ra (tac3 receptor a, NKB receptor) (zebrafish)
- T1 chain: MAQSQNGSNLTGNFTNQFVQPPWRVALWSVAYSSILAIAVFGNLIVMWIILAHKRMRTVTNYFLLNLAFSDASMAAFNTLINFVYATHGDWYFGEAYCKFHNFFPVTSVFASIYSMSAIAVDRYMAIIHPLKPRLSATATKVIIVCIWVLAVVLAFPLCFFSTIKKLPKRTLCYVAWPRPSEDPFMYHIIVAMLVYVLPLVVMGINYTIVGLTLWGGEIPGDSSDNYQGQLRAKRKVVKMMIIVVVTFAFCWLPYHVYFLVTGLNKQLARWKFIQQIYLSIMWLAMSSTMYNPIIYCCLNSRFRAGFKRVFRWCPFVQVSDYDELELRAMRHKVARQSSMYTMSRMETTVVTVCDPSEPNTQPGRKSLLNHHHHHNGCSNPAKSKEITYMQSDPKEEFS
- run_description: cell-based or functional assay
*1 amine or outer side, *2 acyl side, *3 side chain or, on linkers, in order; H or OH if unused. Where no end group is shown, it is not given here. [ ]: non-standard residue; d: D form. NMeF = CN[C@@H](Cc1ccccc1)C(=O)O; Suc = O=C(CCC(=O)[*:2])[*:1]; NMeV = CN[C@H](C(=O)O)C(C)C
measure_name: EC50, SRE reporter gene that follows PKC activation, transfected COS-7 cells (pM)

Answered cases to consult:
binder: YNDIDYDSFVGLM-NH2 [Zebrafish Tac3f peptide, neurokinin F (YNDIDYDSFVGLM-NH2)]
observed_value: 550
--
binder: Suc-DF[NMeF]GLM-NH2 [Senktide (Succ-Asp-Phe-N(Me)Phe-Gly-Leu-Met-NH2)]
observed_value: 2680
--
binder: DMHDFFVGLM-NH2 [human NKB (neurokinin B)]
observed_value: 2200
--
binder: Suc-DF[NMeV]GLM-NH2 [NKBb-analog (Succ-Asp-Phe-N(Me)Val-Gly-Leu-Met-NH2)]
observed_value: 60
--
binder: EMHDIFVGLM-NH2 [Zebrafish Tac3a peptide, neurokinin Ba (EMHDIFVGLM-NH2)]
observed_value: 620

I = STGINREAHLPFRPNMNDIFVGLL-NH2 [Zebrafish Tac3b peptide, neurokinin Bb (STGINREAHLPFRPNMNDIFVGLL-NH2)]
II = XDSFXGLM (N-terminal succinyl (Succ) on Asp; N(Me)Val; C-terminal amide (-NH2)) [NKF-analog (Succ-Asp-Ser-Phe-N(Me)Val-Gly-Leu-Met-NH2)]
# input Hi, I'm comparing two records. Which one has the lower EC50, SRE reporter gene that follows PKC activation, transfected COS-7 cells, I or II ? // caller expects the label of the chosen entry
# output II
(II: 310 pM, I: 6060 pM)
